Attribution: PubChem BioAssay (NCI)

Experiment: NCI Yeast Anticancer Drug Screen. Data for the mlh1 rad18 strain (AID 175)
Settings: S. cerevisiae mlh1 rad18 strain growth inhibition; at 50.0 µM (retest, dose inferred, filed as 5.0); hits give high values
This is part of a sample that, as a whole, favours compounds with a hit. Of some 79,000 tested, about 15% had one in any assay.
observed_property: growth inhibition (%)

> print(dat)
                                    compound  observed.property  value.reported
 1    Oc1cc(-[n+]2ccc3ccccc3c2)c(O)c2ccccc12  growth inhibition              46
 2                            Nc1cc(Cl)ccc1S  growth inhibition              75
 3                     Nc1nc2ccccc2cc1C(=O)O  growth inhibition            -107
 4  [O-]/[N+]1=[N+](\[O-])c2ccccc2CCc2ccccc21  growth inhibition               3
 5  COC(=O)C1(C)CCCC2(C)C3CCC4CC3(C=C4CO)CCC12 (configuration not stated)  growth inhibition              98
 6  C=CCOC(=O)CC(OC(C)=O)C(CC)CC(C)C (configuration not stated)  growth inhibition              12
 7  Nc1c(C(=O)Nc2ccccc2)[n+]([O-])c2ccccc2[n+]1[O-]  growth inhibition              91
 8                COc1ccc2[nH]cc(C(=O)O)c2c1  growth inhibition              84
 9  CC(=O)CCC(Br)(CCC(Br)(CCC(C)=O)[N+](=O)[O-])[N+](=O)[O-] (configuration not stated)  growth inhibition              22
10  CN(C)CC/[N+]([O-])=C(/c1ccccc1)C12CC3CC(CC(C3)C1)C2  growth inhibition              25
11  O=C1c2ccccc2C(=O)c2sc(Nc3cc(Cl)ccc3Cl)nc21  growth inhibition              98
12  COc1ccc(CNc2nc3cc(C(F)(F)F)ccc3nc2C)cc1OC  growth inhibition              18
13  O=C1OC(C2OC(=O)C(=O)C2C(=O)c2ccc(Cl)cc2)C(C(=O)c2ccc(Cl)cc2)C1=O (configuration not stated)  growth inhibition              85
14                   CC#CC#C/C=C1/C=CC(=O)O1  growth inhibition              84
15  CC(=O)C1CCC2C1(C)CC1OC13C21C=CC2(CC(O)CCC23C)C2C(=O)OC(=O)C21 (configuration not stated)  growth inhibition              99
16      O=S1OCCS1 (configuration not stated)  growth inhibition              95
17                  Cc1nn(CCO)c(=O)c(C#N)c1C  growth inhibition              30
18  COC(=O)/C(=C\c1cn(C(C)=O)c2ccccc12)P(=O)(OC)OC  growth inhibition              69
19       [N-]=[N+]=Nc1ccnc2ccc(C3CCCCC3)cc12  growth inhibition              99
20  COc1ccccc1C(=O)Nc1ccc(Cl)c(C(=O)OC(C)C)c1  growth inhibition              65
21  CCc1nc(N)nc(N)c1-c1ccc(NCCCN)c([N+](=O)[O-])c1  growth inhibition             -36
22  CC(=O)N(C1=C(Cl)C(=O)c2ccccc2C1=O)c1ccc(F)cc1  growth inhibition              99
23  C=C(C)C1CC/C(C)=C/CCC2(C)OC2CC/C(CO)=C\C1O (configuration not stated)  growth inhibition              96
24  CCOC(=O)Cc1cc(=O)oc2c(CN3CCN(c4ccc(C)cc4)CC3)c(O)ccc12  growth inhibition              81
25  O=C(Nc1c(Cl)cc([N+](=O)[O-])cc1Cl)/C(=N\Nc1cccc(Cl)c1)c1c(O)c2ccccc2oc1=O  growth inhibition              26
26               Oc1ccccc1/C=N\N=C\c1ccccc1O  growth inhibition               0
27  COc1ccc(/C=C2\CCC(CN3CCOCC3)C2=O)cc1 (configuration not stated)  growth inhibition              97
28  CCCC(C)(O)C(C)CC (configuration not stated)  growth inhibition               0
29  C=CCCCCn1c2ccccc2c2c(C)c3c[n+](C)ccc3c(C)c21  growth inhibition              98
30  Cc1ccc(N2CC3CC4(C)C=CC3(C2)O4)cc1 (configuration not stated)  growth inhibition              -1
31      Cn1ncc2c(Nc3ccccc3)nc(Nc3ccccc3)nc21  growth inhibition              15
32  COC(=O)C1(C)CCc2c(ccc3cccc(OC)c23)C1=O (configuration not stated)  growth inhibition              99
33  CCCCNC(=S)NC1OC(CO)C(O)C(O)C1O (configuration not stated)  growth inhibition              20
34  COc1ccc(-c2c(C#N)cc(OC)c(OC)c2OC)c(C=O)c1  growth inhibition              57
35  c1cc2ccc1C1NCCCN1CCN1CCCNC1c1ccc(cc1)C1NCCCN1CCN1CCCNC21 (configuration not stated)  growth inhibition             -14
36           N#CCc1nc2c(s1)C(=O)c1ccccc1C2=O  growth inhibition              99
37     CC(C)NC(=O)OCCN=C1c2ccccc2CCc2ccccc21  growth inhibition              95
38         O=C(O)c1ccccc1C(c1ccccc1)c1ccccc1  growth inhibition              84
39  COc1cc[c]([Sn]([c]2ccc(OC)cc2)([c]2ccc(OC)cc2)[c]2ccc(OC)cc2)cc1  growth inhibition             -14
40  COC(=O)[C@]1(C)CCC[C@]2(C)c3ccc(C(C)C)cc3C(=O)C[C@@H]12  growth inhibition              73
41                   NCCOB(c1ccccc1)c1ccccc1  growth inhibition              99
42           CN(C)CCN(C)CCC(=O)/C=C/c1ccccc1  growth inhibition              99
43     Cc1nc(Nc2ccc(Cl)cc2)sc1C(=O)NNC(=S)NN  growth inhibition              82
44  O=S(=O)(Nc1ccccc1)c1ccccc1C(O)(c1ccccc1)c1ccccc1  growth inhibition              92
45  COc1ccc(SC2=C(N(C)C)C(=O)c3ccccc3C2=O)cc1  growth inhibition              88
46   C/C(=N\NC(=S)N/N=C(\C)c1ccccn1)c1ccccn1  growth inhibition              99
47  CCCCn1cnc2c(SCc3ccccc3[N+](=O)[O-])nc(N)nc21  growth inhibition               3
